pIC50: recorded values
# TARGET DESC: human full-length MKNK1 (Homo sapiens (Human), UniProt Q9BUB5, T344D)
# Sequence (Q9BUB5 other isoform, or with tags, fused parts or gaps T344D): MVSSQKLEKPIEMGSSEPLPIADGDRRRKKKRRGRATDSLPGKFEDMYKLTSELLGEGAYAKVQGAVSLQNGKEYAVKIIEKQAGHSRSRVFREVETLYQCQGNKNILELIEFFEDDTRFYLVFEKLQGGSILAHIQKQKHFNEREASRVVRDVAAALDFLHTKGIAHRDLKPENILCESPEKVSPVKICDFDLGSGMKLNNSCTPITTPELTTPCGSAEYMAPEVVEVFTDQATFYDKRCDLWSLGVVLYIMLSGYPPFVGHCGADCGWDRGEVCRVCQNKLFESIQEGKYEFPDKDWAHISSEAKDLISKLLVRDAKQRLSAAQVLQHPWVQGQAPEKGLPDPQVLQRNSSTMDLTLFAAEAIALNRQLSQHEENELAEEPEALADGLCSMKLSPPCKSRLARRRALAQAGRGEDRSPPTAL
# EXPERIMENT NOTES: MKNK1 kinase high ATP assay (TR-FRET-based)
# Format: biochemical
# CONDITION INFO: 2 mM ATP final conc.; 15 min preincubation with enzyme
pIC50: −log10 of the molar value.
OBSERVATION TYPE: pIC50

| COMPOUND | TARGET DESC | OBSERVATION TYPE | REPORTED |
| --- | --- | --- | --- |
| NCC(CN)Oc1ccc2ncc(-c3cc4ccccc4o3)n2n1 | human full-length MKNK1 (Homo sapiens (Human), UniProt Q9BUB5, T344D) | pIC50 | 7.04 |
| NC(COc1ccc2ncc(-c3cc4ccccc4o3)n2n1)C1CCOCC1 (stereo not drawn) | human full-length MKNK1 (Homo sapiens (Human), UniProt Q9BUB5, T344D) | pIC50 | 7.10 |
| NCC(Cc1ccccc1)Oc1ccc2ncc(-c3cc4ccccc4o3)n2n1 (stereo not drawn) | human full-length MKNK1 (Homo sapiens (Human), UniProt Q9BUB5, T344D) | pIC50 | 7.60 |
| COc1cccc2oc(-c3cnc4ccc(OCCCCN)nn34)cc12 | human full-length MKNK1 (Homo sapiens (Human), UniProt Q9BUB5, T344D) | pIC50 | 8.30 |
| C[C@@H](N)COc1ccc2ncc(-c3cc4ccccc4o3)n2n1 | human full-length MKNK1 (Homo sapiens (Human), UniProt Q9BUB5, T344D) | pIC50 | 7.37 |
| N[C@@H](COc1ccc2ncc(-c3cc4ccccc4o3)n2n1)c1ccccc1 | human full-length MKNK1 (Homo sapiens (Human), UniProt Q9BUB5, T344D) | pIC50 | 7.48 |
| NCCCCOc1ccc2ncc(-c3cc4ccccc4o3)n2n1 | human full-length MKNK1 (Homo sapiens (Human), UniProt Q9BUB5, T344D) | pIC50 | 7.77 |
| NCCCOc1ccc2ncc(-c3cc4ccccc4o3)n2n1 | human full-length MKNK1 (Homo sapiens (Human), UniProt Q9BUB5, T344D) | pIC50 | 7.62 |
| CC(C)(N)COc1ccc2ncc(-c3cc4ccccc4o3)n2n1 | human full-length MKNK1 (Homo sapiens (Human), UniProt Q9BUB5, T344D) | pIC50 | 7.23 |
